Test system: α7 nACh receptors
assay.explanation: α7 NNR oocyte assay (electrophysiological recordings in Xenopus oocytes)
Format: cell-based, human or rat
measurement.setup: compound at 10 μM co-applied with ACh (30 μM); fold modulation of the control response, total charge (AUC)
Binarize Fold modulation, AUC at 2; below is 1, at or above is 0.

Could you please tell me whether Fold modulation, AUC recorded for Cc1cc(C(=O)Nc2c(C)ccnc2C)c2c(C)nn(-c3ccc(S(N)(=O)=O)cc3)c2n1 is less than 2?
1

Could you please tell me whether Fold modulation, AUC recorded for COc1ccc(-n2nc(C)c3c(C(=O)Nc4c(C)ccnc4C)cc(-c4ccccc4)nc32)cc1 is less than 2?
0

Could you please tell me whether Fold modulation, AUC recorded for Cc1cc(C(=O)Nc2c(C)ccnc2C)c2c(C)nn(-c3ccc(C(F)(F)F)cc3)c2n1 is less than 2?
0

Could you please tell me whether Fold modulation, AUC recorded for COc1ccc(-n2nc(C)c3c(C(=O)Nc4cnccc4C#N)cc(C)nc32)cc1 is less than 2?
0

Could you please tell me whether Fold modulation, AUC recorded for Cc1cc(C(=O)Nc2c(C)ccnc2C)c2c(C)nn(-c3ccc(S(C)(=O)=O)cc3)c2n1 is less than 2?
1

Could you please tell me whether Fold modulation, AUC recorded for COc1ccc(-n2nc(OC)c3c(C(=O)Nc4c(C)ccnc4C)cc(C)nc32)cc1 is less than 2?
0

* * *

observation.type: melting point

Quick one: melting point for Cc1cc(C(=O)Nc2cccnc2C)c2c(C)nn(-c3ccccc3)c2n1 ?
208 to 209 °C

Quick one: melting point for COc1nccc(C)c1NC(=O)c1cc(C)nc2c1c(C)nn2-c1ccccc1 ?
172 to 174 °C

Quick one: melting point for COc1cc(C)ncc1NC(=O)c1cc(C)nc2c1c(C)nn2-c1ccccc1 ?
206 to 207 °C

Quick one: melting point for COc1ccc(-n2nc(C)c3c(C(=O)Nc4c(C)ccnc4C)cc(C)nc32)cc1 ?
224 to 227 °C

Quick one: melting point for Cc1cc(C(=O)Nc2cnccc2C)c2c(C)nn(-c3ccccc3)c2n1 ?
227 to 228 °C

* * *

Hi there, I'd appreciate the recorded Fold modulation, peak for every entry that follows.
System: α7 nACh receptors
assay.explanation: α7 NNR oocyte assay (electrophysiological recordings in Xenopus oocytes)
Type: cell-based, human or rat
measurement.setup: compound at 10 μM co-applied with ACh (30 μM); fold modulation of the control response, peak response
Respond using a number only.

Form: Entry = Cc1cc(C(=O)Nc2c(C)ccnc2C)c2c(C)nn(-c3ccc(S(N)(=O)=O)cc3)c2n1 | System = α7 nACh receptors | Fold modulation, peak = ____
1.7

Form: Entry = Cc1cc(C(=O)Nc2c(C)ccnc2C)c2c(C)nn(-c3ccc(S(C)(=O)=O)cc3)c2n1 | System = α7 nACh receptors | Fold modulation, peak = ____
1.9

Form: Entry = COc1ccc(-n2nc(C)c3c(C(=O)Nc4cnccc4C#N)cc(C)nc32)cc1 | System = α7 nACh receptors | Fold modulation, peak = ____
7.9

Form: Entry = Cc1cc(C(=O)Nc2c(C)ccnc2C)c2c(C)nn(-c3ccc(C(F)(F)F)cc3)c2n1 | System = α7 nACh receptors | Fold modulation, peak = ____
8.1

Form: Entry = COc1ccc(-n2nc(OC)c3c(C(=O)Nc4c(C)ccnc4C)cc(C)nc32)cc1 | System = α7 nACh receptors | Fold modulation, peak = ____
5.1

Form: Entry = COc1ccc(-n2nc(C)c3c(C(=O)Nc4c(C)ccnc4C)cc(-c4ccccc4)nc32)cc1 | System = α7 nACh receptors | Fold modulation, peak = ____
14
